- System: growing Swiss mouse
- method: acute toxicity (LD50 and toxic symptomatology), intraperitoneal administration
- Format: in vivo
- settings: ip
observed property: Symptomatology

See these solved cases before continuing.
• CCCC(CCC)=NOCCC(=O)O = passivity
• COc1ccc(C(C)=NOCCC(=O)O)cc1 = passivity
• CCC(CO/N=C/c1ccccc1)C(=O)O (stereo not drawn) = passivity
• O=C(O)CCON=Cc1ccc(Cl)cc1 = passivity

Entry CC(CO/N=C/c1ccccc1)C(=O)O (stereo not drawn) : reported Symptomatology = ?
passivity

* * *

Task for the reader: assign each of the following compounds its reported LD50 at 240 h.
- method: acute toxicity (LD50 and toxic symptomatology), intraperitoneal administration
- Format: in vivo
- settings: in vivo; mouse, ip, 10 days observation, graphic interpolation
Kindly provide the numeric value in mg/kg only, without the unit symbol.

I'd like to know its LD50 at 240 h. The compound in question is O=C(O)CCON=Cc1ccc(Cl)cc1 [compound 14]
350

What value of LD50 at 240 h has been reported for the following compound? O=C(O)CCO/N=C/c1ccc2c(c1)OCO2 [compound 21]
525

So what's the measured LD50 at 240 h for this one? CCCC(CCC)=NOCCC(=O)O [compound 4]
450

Sample O=C(O)CCON=C(c1ccccc1)c1ccccc1 [compound 7] — what was its LD50 at 240 h?
300

Dear colleague, I am looking for the recorded LD50 at 240 h of the following compound: CC(=NOCCC(=O)O)c1ccccc1 [compound 6]
600

May I ask what LD50 at 240 h has been recorded for O=C(O)CCO/N=C/c1cccs1 [compound 22] ?
1800

What value of measured LD50 at 240 h is listed for O=C(O)CCON=Cc1cccc(Cl)c1 [compound 18] ?
325

I would be grateful if you could share the reported LD50 at 240 h for CC(CO/N=C/c1ccccc1)C(=O)O (stereo not drawn) [compound 24] .
750

Query (compound): O=C(O)CCON=C1CCCC1 [compound 1] ; field requested: LD50 at 240 h
200

Name the reported LD50 at 240 h value associated with the compound O=C(O)CCON=Cc1ccco1 [compound 15]
1500

Record request: LD50 at 240 h value, item O=C(O)CCON=Cc1ccccc1Cl [compound 17]
400

Bench note: what LD50 at 240 h did COc1ccc(C(C)=NOCCC(=O)O)cc1 [compound 12] show?
850
